Source listed as patent US20180305332A1.

# tested target: GST tagged LXRalpha LBD (ligand binding domain) (Homo sapiens, UniProt Q13133)
# Sequence (Q13133 209-447 limits assumed): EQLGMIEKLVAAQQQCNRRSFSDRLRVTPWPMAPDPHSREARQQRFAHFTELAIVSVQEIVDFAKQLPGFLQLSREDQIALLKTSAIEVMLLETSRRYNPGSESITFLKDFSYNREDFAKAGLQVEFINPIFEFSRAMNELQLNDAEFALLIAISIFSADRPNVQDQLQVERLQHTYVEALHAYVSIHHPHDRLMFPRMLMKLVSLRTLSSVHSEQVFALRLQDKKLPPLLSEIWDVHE
# procedure details: LanthaScreen TR-FRET Liver X Receptor Coactivator Assay, LXR alpha-LBD
# condition summary: Inflection Point (potency), co-activator recruitment, relative to reference T0901317; read-out: LXR alpha IP
measure name: EC50 (µM)
Hi! Could you send only the number? It should be in µM, unit omitted.

Lab note: need EC50 with GST tagged LXRalpha LBD (ligand binding domain) (Homo sapiens, UniProt Q13133) for entry CN(Cc1ccno1)C(=O)c1ccc(N2CCC(C3CCN(C(=O)[C@](O)(c4ccccc4)C(F)(F)F)CC3)CC2)cc1Cl , please look it up.
1.4

Any idea what EC50 came out for CN(CCO)C(=O)c1ccc(N2CCC(C3CCN(C(=O)[C@](O)(c4ccccc4)C(F)(F)C(F)(F)F)CC3)CC2)cc1Cl on GST tagged LXRalpha LBD (ligand binding domain) (Homo sapiens, UniProt Q13133)?
0.913

# returns recorded EC50 (system: GST tagged LXRalpha LBD (ligand binding domain) (Homo sapiens, UniProt Q13133)) for CN(C)C(=O)c1ccc(N2CCC(C3CCN(C(=O)C(O)(C(F)(F)F)C(F)(F)F)CC3)CC2)nc1Cl
2.24

Kindly state the measured EC50 obtained for CN(C)C(=O)c1ccc(N2CCC(C3CCN(S(=O)(=O)c4ccccc4Cl)CC3)CC2)cc1Cl with GST tagged LXRalpha LBD (ligand binding domain) (Homo sapiens, UniProt Q13133).
2.19

Request - read-out EC50 | tested on GST tagged LXRalpha LBD (ligand binding domain) (Homo sapiens, UniProt Q13133) | compound CC(C)S(=O)(=O)c1ccc(N2CCC(C3CCN(C(=O)[C@](O)(c4ccccc4)C(F)(F)F)CC3)CC2)cc1Cl
1.52

What reported EC50 corresponds to CN(C)C(=O)c1ccc(N2CCC(C3CCN(C(=O)OC(C)(C)C)CC3)CC2)nc1Cl on GST tagged LXRalpha LBD (ligand binding domain) (Homo sapiens, UniProt Q13133)?
1.55

Could you share what EC50 was measured for CN(C)C(=O)c1ccc(N2CCC(C3CCN(C(=O)C(O)(c4ccccc4F)C(F)(F)F)CC3)CC2)cc1Cl (centres unmarked) , tested on GST tagged LXRalpha LBD (ligand binding domain) (Homo sapiens, UniProt Q13133)?
2.34

Record lookup: for GST tagged LXRalpha LBD (ligand binding domain) (Homo sapiens, UniProt Q13133), what EC50 belongs to CC(C)C(O)(C(=O)N1CCC(C2CCN(c3ccc(C(=O)N(C)C)cc3Cl)CC2)CC1)C(F)(F)F (centres unmarked) ?
1.57

Find EC50 (GST tagged LXRalpha LBD (ligand binding domain) (Homo sapiens, UniProt Q13133)) for the entry CN(C)C(=O)c1ccc(N2CCC(C3CCN(C(=O)C(F)(F)c4ccccc4)CC3)CC2)cc1Cl
0.936

Field: EC50 (GST tagged LXRalpha LBD (ligand binding domain) (Homo sapiens, UniProt Q13133)). Entry: CC(C)C(O)(C(=O)N1CCC(C2CCN(c3ccc(C(=O)N(C)C)c(Cl)n3)CC2)CC1)C(F)(F)F (centres unmarked) [Example B-4]
0.493

Requested read-out EC50, target or system GST tagged LXRalpha LBD (ligand binding domain) (Homo sapiens, UniProt Q13133), entry CN(C)C(=O)c1ccc(N2CCC(C3CCN(C(=O)C(O)(c4ccccc4)C(F)(F)C(F)(F)C(F)(F)F)CC3)CC2)cc1Cl (centres unmarked) [Example A-54]
0.827

State its EC50 on GST tagged LXRalpha LBD (ligand binding domain) (Homo sapiens, UniProt Q13133): C=CCC(O)(C(=O)N1CCC(C2CCN(c3ccc(C(=O)N(C)C)c(Cl)c3)CC2)CC1)C(F)(F)F (centres unmarked)
4.79

Give EC50 (GST tagged LXRalpha LBD (ligand binding domain) (Homo sapiens, UniProt Q13133)) of the following compound: O=C(c1ccc(N2CCC(C3CCN(C(=O)[C@](O)(c4ccccc4)C(F)(F)F)CC3)CC2)cc1Cl)N1CC[C@H](F)C1
1.45

Enter reported EC50 observed with GST tagged LXRalpha LBD (ligand binding domain) (Homo sapiens, UniProt Q13133) for COC(=O)[C@@H]1CCCN1C(=O)c1ccc(N2CCC(C3CCN(C(=O)[C@](O)(c4ccccc4)C(F)(F)F)CC3)CC2)cc1Cl
1.67

---

# tested target: GST tagged LXRalpha LBD (ligand binding domain) (Homo sapiens, UniProt Q13133)
# procedure details: LanthaScreen TR-FRET Liver X Receptor Coactivator Assay, LXR alpha-LBD
# condition summary: Inflection Point (potency), co-activator recruitment, relative to reference T0901317; read-out: LXR alpha IP
Provide the recorded pEC50 for the entries that follow.
When answering, recall that pEC50 equals minus log10 of the concentration in mol/L, and write that number alone.

Entry under review: O=C(NC1CN(C(=O)c2ccc(N3CCC(C4CCN(C(=O)[C@](O)(c5ccccc5)C(F)(F)F)CC4)CC3)cc2Cl)C1)c1ccccc1 [Example E-41] . Reported pEC50?
5.77

Quick check: pEC50 of CC(C)C(O)(C(=O)N1CCC(C2CCN(c3cc(F)c(C(=O)N(C)C)c(F)c3)CC2)CC1)C(F)(F)F [Example D-1] ?
5.84

Which pEC50 value is on record for CN(C)C(=O)c1ccc(N2CCC(C3CCN(C(=O)C4(c5c(F)cccc5Cl)CCCC4)CC3)CC2)cc1Cl [Example A-82] ?
6.83

So what does the record say about pEC50 for O=C(c1ccc(N2CCC(C3CCN(C(=O)[C@](O)(c4ccccc4)C(F)(F)F)CC3)CC2)cc1Cl)N1CCC[C@H]1CO [Example E-63] ?
6.44

If you can, please state the reported pEC50 value of CN(C)C(=O)c1ccc(N2CCC(C3CCN(C(=O)C45CC(C4)C5)CC3)CC2)cc1Cl [Example A-15] .
5.50

Fill in: pEC50 of CN(C)C(=O)c1ccc(N2CCC(C3CCN(C(=O)C(O)(c4ccccc4)C4CCC4)CC3)CC2)cc1Cl (centres unmarked) [Example A-51] is ___
5.80

Given the entry CN(C)C(=O)c1ccc(N2CCC(C3CCN(C(=O)C(C)(C)c4cccc(F)c4)CC3)CC2)cc1Cl [Example A-91] , report its measured pEC50.
5.68

May I ask what pEC50 has been recorded for O=C(c1ccc(N2CCC(C3CCN(C(=O)[C@](O)(c4ccccc4)C(F)(F)F)CC3)CC2)cc1Cl)N1CC(N2CCCCC2)C1 [Example E-44] ?
5.77

Please give the measured pEC50 for this compound: CN(C)C(=O)c1ccc(N2CCC(C3CCN(C(=O)C(C)(O)C(F)(F)F)CC3)CC2)nc1Cl (centres unmarked) [Example B-11]
5.66

Which measured pEC50 value corresponds to CN(C)C(=O)c1ccc(N2CCC(C3CCN(S(=O)(=O)c4ccccc4C(F)(F)F)CC3)CC2)cc1Cl [Example A-101] ?
6.21

Value lookup for pEC50; key = CN(C)C(=O)c1c(Cl)cc(N2CCC(C3CCN(C(=O)c4c(F)cccc4F)CC3)CC2)cc1Cl [Example A-32]
6.13

Param item = CC(C)(C)OC(=O)N1CCC(C2CCN(c3ccc(S(C)(=O)=O)c(Cl)c3)CC2)CC1 [Example D-9] ; retrieve measured pEC50.
6.09

Name the reported pEC50 value associated with the compound CC(C)C(O)(C(=O)N1CCC(C2CCN(c3ccc(C(=O)N(C)C)c(F)c3)CC2)CC1)C(F)(F)F [Example D-2]
5.56

Look up pEC50 for this compound: O=C(c1ccc(N2CCC(C3CCN(C(=O)[C@](O)(c4ccccc4)C(F)(F)F)CC3)CC2)cc1Cl)N1CC(N2CCCC2)C1 [Example E-42]
5.84

---

# tested target: GST tagged LXRbeta LBD (ligand binding domain) (Homo sapiens)
# Construct: purchased Invitrogen pv4658.pps
# Sequence (P55055 222-460 limits assumed): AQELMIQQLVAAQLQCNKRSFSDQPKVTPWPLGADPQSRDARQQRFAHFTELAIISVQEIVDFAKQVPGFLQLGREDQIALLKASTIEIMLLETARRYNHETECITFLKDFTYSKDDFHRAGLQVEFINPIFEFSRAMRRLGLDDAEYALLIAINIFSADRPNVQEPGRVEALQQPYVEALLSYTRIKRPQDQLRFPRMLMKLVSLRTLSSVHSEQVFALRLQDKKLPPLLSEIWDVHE
# procedure details: LanthaScreen TR-FRET Liver X Receptor Coactivator Assay, LXR beta-LBD
# Assay type: biochemical
# condition summary: activity at max dose (efficacy), relative to reference T0901317; read-out: LXR beta act @ max dose (%)
measure name: Emax

# query: Emax of entry CN(C)C(=O)c1ccc(N2CCC(C3CCN(C(=O)C(O)(C(F)(F)F)C(F)(F)F)CC3)CC2)cc1Cl
86%

Param item = CN(C)C(=O)c1ccc(N2CCC(C3CCN(S(=O)(=O)c4c(Cl)cccc4C(F)(F)F)CC3)CC2)cc1Cl ; retrieve measured Emax.
118%

// query Emax value for entry CC(C)(C)OC(=O)NC1CN(C(=O)c2ccc(N3CCC(C4CCN(C(=O)OC(C)(C)C)CC4)CC3)cc2Cl)C1
92%

So what's the measured Emax for this one? CC(C)C(O)(C(=O)N1CCC(C2CCN(c3ccc(C(=O)N4CC(F)(F)C4)c(Cl)c3)CC2)CC1)C(F)(F)F (stereo not shown)
81%
